I'd appreciate it if you could supply Kd values for the items below.
# Target of assay: MBD4 MBD (Homo sapiens, UniProt O95243 55-152)
# Sequence (O95243 55-152): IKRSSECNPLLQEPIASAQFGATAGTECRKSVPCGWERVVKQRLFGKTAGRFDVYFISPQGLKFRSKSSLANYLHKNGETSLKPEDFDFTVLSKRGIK
# Measurement protocol: ITC
Please give a number only; it is taken to be in nM.

[ask] Need Kd, item AmCGT (mCG) (dsDNA, 5mC at position 6 of both strands) DNA 1: GCCAACGTTGGC DNA 2: GCCAACGTTGGC
[reply] 400

[ask] Also need mCG/TG (dsDNA, 5mC at position 6 of strand 1) DNA 1: GTCAACGTTACG DNA 2: CGTAATGTTGAC , thanks.
[reply] 1500

These measurements were taken from paper doi:10.1101/338061.
